Test system: alternansucrase
ASSAY TEXT: Comparison of acceptor strengths with alternansucrase, relative amount of alternan formed
CONDITION: 45 μL 10% (w/v) sucrose, 45 μL 10% (w/v) acceptor, 10 μL alternansucrase, pH 5.4, room temperature; less alternan = stronger acceptor
Assign class by Alternan (Rel. %): not lower than 70 Rel. % means TRUE; lower than 70 Rel. % means FALSE.

Example results:
OC[C@H]1O[C@@](CO)(O[C@H]2O[C@H](CO[C@@H]3O[C@H](CO)[C@@H](O)[C@H](O)[C@H]3O)[C@@H](O)[C@H](O)[C@H]2O)[C@@H](O)[C@@H]1O: FALSE
O=C(CO)[C@@H](O)[C@H](O)[C@H](O)CO: TRUE
O=CC[C@H](O)[C@H](O)CO: TRUE
OC[C@H]1O[C@H](O[C@H]2[C@H](O)[C@@H](O)[C@H](O)O[C@@H]2CO)[C@H](O)[C@@H](O)[C@@H]1O: FALSE
CC(=O)N[C@H]1C(O)O[C@H](CO)[C@@H](O)[C@@H]1O (stereo partly shown): TRUE
OC[C@H]1O[C@@](CO)(O[C@H]2O[C@H](CO)[C@@H](O)[C@H](O)[C@H]2O)[C@@H](O[C@H]2O[C@H](CO)[C@@H](O)[C@H](O)[C@H]2O)[C@@H]1O: TRUE
O=CC[C@@H](O)[C@@H](O)[C@H](O)CO: TRUE
CCCCCCCCCCCCO[C@@H]1O[C@H](CO)[C@@H](O[C@H]2O[C@H](CO)[C@@H](O)[C@H](O)[C@H]2O)[C@H](O)[C@H]1O [β-dodecyl maltoside]: TRUE
OC[C@H]1O[C@H](O[C@H]2[C@H](O)[C@@H](CO)OC(O)[C@@H]2O)[C@H](O)[C@@H](O)[C@@H]1O (stereo partly shown): FALSE
O=C[C@@H](O)[C@H](O[C@@H]1O[C@H](CO)[C@H](O)[C@H](O)[C@H]1O)[C@H](O)CO: TRUE

q: Dear colleague, could you confirm whether `OC[C@H]1O[C@@H]2OC[C@H]3O[C@H](O[C@@H]4[C@@H](O)[C@@H](OC[C@H]5O[C@H](O[C@H]([C@H]2O)[C@@H]1O)[C@H](O)[C@@H](O)[C@@H]5O)O[C@H](CO)[C@H]4O)[C@H](O)[C@@H](O)[C@@H]3O` has Alternan (Rel. %) at or above 70 Rel. %?
a: TRUE

q: Test whether the compound `O=CC[C@@H](O)[C@H](O)[C@H](O)CO` records Alternan (Rel. %) of 70 Rel. % or higher.
a: FALSE

----------
System: alternansucrase
ASSAY TEXT: Comparison of acceptor strengths with alternansucrase, relative amount of alternan formed
CONDITION: 45 μL 10% (w/v) sucrose, 45 μL 10% (w/v) acceptor, 10 μL alternansucrase, pH 5.4, room temperature; less alternan = stronger acceptor
MEASURED QUANTITY: Alternan (Rel. %)
Give your result in Rel. % as a bare value.

CCCCCCCCO[C@@H]1O[C@H](CO)[C@@H](O)[C@H](O)[C@H]1O [β-octyl D-glucoside, β-octyl-D-glucopyranoside]: 52
O=C(CO)[C@@H](O)[C@H](O)[C@@H](O)CO: 88
O=C(CO)[C@H](O)[C@H](O)[C@H](O)CO: 85
C[C@H](O)[C@H](O)[C@@H](O)[C@@H](O)C=O: 96
O=C[C@H](O)[C@@H](O)[C@@H](O)[C@H](O)CO: 83
OC[C@H]1O[C@H](O[C@H]2C(O)O[C@H](CO)[C@@H](O)[C@@H]2O)[C@H](O)[C@@H](O)[C@@H]1O (some centres unmarked): 27
OC[C@H]1O[C@H](OC[C@H]2O[C@H](OC[C@H]3O[C@H](O[C@]4(CO)O[C@H](CO)[C@@H](O)[C@@H]4O)[C@H](O)[C@@H](O)[C@@H]3O)[C@H](O)[C@@H](O)[C@H]2O)[C@H](O)[C@@H](O)[C@H]1O: 89
OC[C@H]1O[C@H](OC[C@H]2O[C@H](O[C@]3(CO)O[C@H](CO)[C@@H](O)[C@@H]3O)[C@H](O)[C@@H](O)[C@@H]2O)[C@H](O)[C@@H](O)[C@H]1O: 67
O=C[C@@H](O)[C@@H](O)[C@@H](O)[C@H](O)CO: 77
CO[C@H]1O[C@H](CO)[C@@H](O)[C@H](O)[C@H]1O [α-methyl-D-glucoside, α-methyl-D-glucopyranoside]: 20

q: I'd like to know its Alternan (Rel. %). The compound in question is OC[C@H]1O[C@H](OC[C@H]2OC(O)[C@H](O)[C@@H](O)[C@@H]2O)[C@H](O)[C@@H](O)[C@@H]1O (some centres unmarked)
a: 44

q: Please look up its Alternan (Rel. %): CO[C@H]1O[C@H](CO)[C@@H](O)[C@H](O)[C@@H]1O [α-methyl-D-mannoside, α-methyl-D-mannopyranoside]
a: 70

q: Using the record for OC[C@H]1O[C@@H](O[C@H]2C(O)O[C@H](CO)[C@@H](O)[C@@H]2O)[C@H](O)[C@@H](O)[C@@H]1O (some centres unmarked) , report its Alternan (Rel. %).
a: 80

q: Given `O=C(CO)[C@H](O)[C@@H](O)[C@H](O)CO` , state its recorded Alternan (Rel. %).
a: 97

q: Which Alternan (Rel. %) is reported for this compound? `OC[C@@H](O)[C@@H](O)[C@H](O)[C@H](O)CO`
a: 100

----------
Tested on: alternansucrase
ASSAY TEXT: Comparison of acceptor strengths with alternansucrase, relative amount of alternan formed
CONDITION: 45 μL 10% (w/v) sucrose, 45 μL 10% (w/v) acceptor, 10 μL alternansucrase, pH 5.4, room temperature; less alternan = stronger acceptor
Respond with 1 (yes) for Alternan (Rel. %) values of 60 Rel. % and above, 0 (no) for values below.

Example entries begin here.
CO[C@@H]1O[C@H](CO)[C@H](O)[C@H](O)[C@H]1O [β-methyl-D-galactoside, β-methyl-D-galactopyranoside]: 1 (yes)
OC[C@H]1O[C@@](CO)(O[C@H]2O[C@H](CO[C@H]3O[C@H](CO)[C@@H](O)[C@H](O)[C@H]3O)[C@@H](O)[C@H](O)[C@H]2O)[C@@H](O)[C@@H]1O: 0 (no)
OC[C@H]1O[C@H](OC[C@H]2O[C@H](O[C@H]3O[C@H](CO[C@H]4O[C@H](CO)[C@@H](O)[C@H](O)[C@H]4O)[C@@H](O)[C@H](O)[C@H]3O)[C@H](O)[C@@H](O)[C@@H]2O)[C@H](O)[C@@H](O)[C@@H]1O: 0 (no)

We now examine a further compound.
q: Check the entry CO[C@H]1O[C@H](CO)[C@H](O)[C@H](O)[C@H]1O [α-methyl-D-galactoside, α-methyl-D-galactopyranoside] : does Alternan (Rel. %) equal or exceed 60 Rel. %?
a: 1 (yes)

----------
Tested on: alternansucrase
ASSAY TEXT: Comparison of acceptor strengths with alternansucrase, relative amount of alternan formed
CONDITION: 45 μL 10% (w/v) sucrose, 45 μL 10% (w/v) acceptor, 10 μL alternansucrase, pH 5.4, room temperature; less alternan = stronger acceptor
Hi, to clarify the labels: yes covers Alternan (Rel. %) from 90 Rel. % upward, no covers anything below 90 Rel. %.

Sample answers from the record:
OC[C@H]1O[C@H](OC[C@H]2O[C@H](OC[C@H]3OC(O)[C@H](O)[C@@H](O)[C@@H]3O)[C@H](O)[C@@H](O)[C@@H]2O)[C@H](O)[C@@H](O)[C@@H]1O (some centres unmarked): no
O=C[C@@H](O)[C@H](O)[C@@H](O)[C@@H](O)CO: no
O=C(CO)[C@@H](O)[C@@H](O)[C@H](O)CO: no
OC[C@H]1O[C@H](O[C@H]2[C@@H](O[C@H]3C(O)O[C@H](CO)[C@@H](O)[C@@H]3O)O[C@H](CO)[C@@H](O)[C@@H]2O)[C@H](O)[C@@H](O)[C@@H]1O (some centres unmarked): no
O=C[C@@H](O)[C@H](O)[C@H](O)CO: yes

Okay, now this compound:
q: Reported Alternan (Rel. %) at or above 90 Rel. %? OC[C@H]1O[C@H](OCC2O[C@@H](O)[C@H](O)[C@@H](O)[C@@H]2O)[C@H](O)[C@@H](O)[C@H]1O (some centres unmarked)
a: no

----------
Tested on: alternansucrase
ASSAY TEXT: Comparison of acceptor strengths with alternansucrase, relative amount of alternan formed
CONDITION: 45 μL 10% (w/v) sucrose, 45 μL 10% (w/v) acceptor, 10 μL alternansucrase, pH 5.4, room temperature; less alternan = stronger acceptor
Alternan (Rel. %) values for the compounds below.
Please reply with the bare figure in Rel. % and do not write the unit itself.

OC[C@H]1O[C@@H](O[C@@H]2[C@@H](CO)OC(O)(CO)[C@H]2O)[C@H](O)[C@@H](O)[C@H]1O (mixture of isomers): 91
OC[C@@H](O)[C@@H](O)[C@H](O)[C@@H](O)CO: 82
O=C[C@H](O)[C@@H](O)[C@@H](O)CO: 75

q: Under alternansucrase: Alternan (Rel. %) value of `C[C@H](O)[C@@H](O)[C@@H](O)[C@H](O)C=O` ?
a: 94

q: Identify the measured Alternan (Rel. %) of `O=C[C@@H](O)[C@@H](O)[C@H](O)CO` for alternansucrase.
a: 99

q: Report Alternan (Rel. %) for `O[C@H]1[C@H](O)[C@@H](O)[C@H](O)[C@@H](O)[C@H]1O` tested on alternansucrase.
a: 99

q: Hi! What's the reported Alternan (Rel. %) for `OC[C@@H](O)[C@H](O)[C@H](O)[C@@H](O)CO` on alternansucrase?
a: 101

q: // map `O=C[C@H](O)[C@@H](O)[C@H](O)CO` to recorded Alternan (Rel. %) (system: alternansucrase)
a: 86

q: Short answer please: Alternan (Rel. %), alternansucrase, entry CO[C@@H]1O[C@H](CO)[C@@H](O)[C@H](O)[C@@H]1O [β-methyl-D-mannoside]
a: 89

Reference source for all entries: patent US7182954B1
